Biological target: UniProt Q8NET8
Sequence (Q8NET8 whole entry): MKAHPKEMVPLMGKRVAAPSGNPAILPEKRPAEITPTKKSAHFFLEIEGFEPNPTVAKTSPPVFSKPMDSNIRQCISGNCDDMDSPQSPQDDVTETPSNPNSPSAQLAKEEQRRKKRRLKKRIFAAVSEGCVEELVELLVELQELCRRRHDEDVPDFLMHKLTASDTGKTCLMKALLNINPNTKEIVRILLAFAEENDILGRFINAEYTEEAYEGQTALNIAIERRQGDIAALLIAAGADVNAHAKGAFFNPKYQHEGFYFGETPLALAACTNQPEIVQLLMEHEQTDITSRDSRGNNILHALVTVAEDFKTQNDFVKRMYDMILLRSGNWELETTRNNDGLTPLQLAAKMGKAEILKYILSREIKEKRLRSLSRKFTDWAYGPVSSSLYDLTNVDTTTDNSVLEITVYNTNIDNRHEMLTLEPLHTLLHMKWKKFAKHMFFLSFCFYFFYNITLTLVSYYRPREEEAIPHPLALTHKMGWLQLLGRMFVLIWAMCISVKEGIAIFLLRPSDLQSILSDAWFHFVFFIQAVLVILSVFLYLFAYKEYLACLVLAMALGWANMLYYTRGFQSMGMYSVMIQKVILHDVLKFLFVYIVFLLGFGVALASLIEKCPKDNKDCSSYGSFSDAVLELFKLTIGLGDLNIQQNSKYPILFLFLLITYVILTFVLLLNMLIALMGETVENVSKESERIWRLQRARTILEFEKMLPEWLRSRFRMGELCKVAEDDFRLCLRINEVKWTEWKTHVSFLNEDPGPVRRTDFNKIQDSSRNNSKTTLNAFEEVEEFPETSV
Assay: Calcium flux assay (FLIPR TETRA), recombinant HEK293 cells expressing TRPV3, 2-APB response
Conditions: 2-APB at its EC80
IC50 reference

Field: example entries. Status: answers known.
SMILES_STR	RECORDED_MEASUREMENT
COc1ncnc(OC)c1C(=O)Nc1nc(C(F)(F)F)c(-c2ocnc2C)s1	50 to 100 nM
COc1ncnc(OC)c1C(=O)Nc1nc(C(F)(F)F)c(C2OCCO2)s1	100 to 500 nM
COc1ncnc(OC)c1C(=O)Nc1nc(C(F)(F)F)c(C2(C)OCCO2)s1	50 to 100 nM

Now examine the next entry.
INPUT: Reported IC50 for `CO/N=C(\c1ccccc1)c1sc(NC(=O)c2c(OC)ncnc2OC)nc1C(F)(F)F` : what is it?
OUTPUT: < 50 nM
